Tested on: HL-60(TB) leukemia
assay.procedure: NCI-60 one-dose screen, 48 h (100 = growth as untreated, 0 = no growth, -100 = all killed)
run.conditions: 10 µM unless noted
Experimental: Growth inhibition of the HL-60(TB) human tumor cell line is measured as a screen for anti-cancer activity. Cells are grown in 96 well plates and exposed to the test compound for 48 hours. Compounds are tested at a single concentration, which is 10^-5 M for most compounds. The reported endpoint is percent growth (GI% or GIPRCNT), where numbers from 0 - 100% represent growth inhibition, and numbers from -100% - 0 represent cell death. For example, a value of 40 represents 60% growth inhibition. […]
About 83,000 compounds went through this panel and 20% of them were active in at least one assay; those are over-represented in the sample as a whole.
Each entry gets criterion not met if its growth stays under 90%, and criterion met if its growth is 90% or above.

Cn1ccc(Nc2nccc(Oc3ccc(C(=O)Nc4cccc(F)c4)c(Cl)c3)n2)c1; criterion met
N[C@@H](CO)C(=O)O; criterion met
Nc1[nH]nc2nc(-c3ccccc3)n3c4ccccc4nc3c12; criterion met
CCCCCCCCCCCCCCCCCBr; criterion met
Nc1ncnc2c1N=C(c1ccc(Br)cc1)CC(c1cccc(Nc3ccnc4cc(C(F)(F)F)ccc34)c1)N2 (configuration not stated); criterion not met

[in] Could you please find out whether CC(C)(C)Nc1c(-c2c3ccccc3cc3ccccc23)nc2ccccn12 has growth that meets 90% or exceeds it?
[out] criterion not met

[in] Could you please find out whether COc1ccc(/C=C/c2cc(N3CCOCC3)c3cc(F)c(F)cc3n2)cc1OC has growth that meets 90% or exceeds it?
[out] criterion not met

[in] Could you please find out whether C#CCNc1nc(NCCNC(=O)CCl)nc(N(C)CCCCc2ccccc2)n1 has growth that meets 90% or exceeds it?
[out] criterion met

[in] Could you please find out whether NC(=O)N1CCOCC1 has growth that meets 90% or exceeds it?
[out] criterion met

[in] Could you please find out whether O=c1oc2ccc(Cl)cc2c(=O)n1-c1ccc(I)cc1F has growth that meets 90% or exceeds it?
[out] criterion not met

[in] Could you please find out whether c1ccc2c(Cc3csc4ccccc34)csc2c1 has growth that meets 90% or exceeds it?
[out] criterion not met

[in] Could you please find out whether Cc1ccc(S(=O)(=O)N(CCc2ccc(Cl)cc2)S(=O)(=O)c2ccc(C)cc2)cc1 has growth that meets 90% or exceeds it?
[out] criterion not met

[in] Could you please find out whether CC1CCCC(C(=O)O)C1C(=O)O (configuration not stated) has growth that meets 90% or exceeds it?
[out] criterion not met

[in] Could you please find out whether COc1cc(/C=C2\CCCC3=C2NC(C)=NC3c2cc(OC)c(OC)c(OC)c2)cc(OC)c1OC (configuration not stated) has growth that meets 90% or exceeds it?
[out] criterion not met

[in] Could you please find out whether OCc1cn(-c2ccc(Cl)cc2)nc1-c1ccc(O)cc1 has growth that meets 90% or exceeds it?
[out] criterion not met

[in] Could you please find out whether CCNc1ccc(-c2nc3ccccc3n3cccc23)cc1 has growth that meets 90% or exceeds it?
[out] criterion not met

###

Tested on: OVCAR-5 ovarian
assay.procedure: NCI-60 one-dose screen, 48 h
run.conditions: 10 µM unless noted
The panel holds about 83,000 compounds, 20% with a hit somewhere; the sample as a whole holds those more often. Calls of active or inactive are those of the source. Rule for the calls: active = growth percent below 10; inactive = the rest.
Your answer must be one of the following: active, inactive

C/C1=C/C(=O)O[C@@H]2C[C@@H](CC[C@H](C)/C=C\C=C\CC1)O[C@@](OCCc1ccccc1)([C@@H]1CSC(=O)N1)C2; inactive

[in] // outcome(item) with item = O=C(CC1(O)C(=O)Nc2ccc(F)cc21)c1ccc(C(=O)NCC2CCC3(CC2)OOC2(CCCCC2)OO3)cc1 (stereo unspecified)
[out] inactive

[in] // outcome(item) with item = C[C@]12CCc3sc(-c4ccc(Cl)cc4)nc3C1=CC[C@@H]1[C@@H]2CC[C@]2(C)C(=O)CC[C@@H]12
[out] inactive

[in] // outcome(item) with item = CCC[CH2][Sn]1([CH2]CCC)[O]C(=O)c2cccc([N+](=O)[O-])c2C(=O)[O]1
[out] active

[in] // outcome(item) with item = CC(=O)O[C@@H]1C2=C(C)C3(CC3)[C@@](C)(O)C(=O)C2=C[C@@]1(C)CO
[out] active

[in] // outcome(item) with item = CCOC(=O)c1cnc(SCc2ccc(Cl)c(Cl)c2)nc1N1CC1
[out] inactive

[in] // outcome(item) with item = CC12CCC(=O)C=C1C(O)CC1C2CCC2(C)C(O)CCC12 (stereo unspecified)
[out] inactive

[in] // outcome(item) with item = N#Cc1ncc(/N=C/c2ccc(N(CCCl)CCCl)cc2)s1
[out] inactive

meta.source: PubChem BioAssay (NCI)
